B1: Steroid hormone receptor ERR2, residues 100 to 176; numbered along this chain, O95718 (parent)
chain: KRLCLVCGDIASGYHYGVASCEACKAFFKRTIQGNIEYSCPATNECEITKRRRKSCQACRFMKCLKVGMLKEGVRLD

# Variants of: B1
# PROTOCOL: abundance fitness (aPCA) (normalised: wild type 0, dead -1); higher = more abundant; growth selection in yeast, the domain comes from the species named
# ASSAY CONTEXT: Homo sapiens
The label depends only on abundance fitness: true if it is at least -0.4, false if it is smaller.

Would you please look over these solved cases?
VARIANT DESIGNATION: L3W
CLASS: false

VARIANT DESIGNATION: R52N
CLASS: true

VARIANT DESIGNATION: I10A
CLASS: true

VARIANT DESIGNATION: C46D
CLASS: false

VARIANT DESIGNATION: C56L
CLASS: false

# bool: abundance fitness of K50Q >= -0.4
true

Test whether the variant T31L records abundance fitness of -0.4 or higher.
false

I'd appreciate it if you could say whether C40Y has abundance fitness at least equal to -0.4.
true

Identify whether the reported abundance fitness of the following variant is -0.4 or greater: I36N
true
